System: ML-2
Parameters: species or system AML cell lines (8); Primary HTS, single concentration about 10 uM, Cell Titer Glo viability; log10 luminescence, per cent inhibition relative to cycloheximide control
RUN_PARAMETERS: 72 h, relative to cycloheximide control, log10 luminescence; inhibitor
OBSERVATION_TYPE: ML-2 %inh (%)
Provide the reading as a plain figure in %.

* CN1CCN(Cc2ccc(-c3cc4ncnc(Nc5ccc(OCc6cccc(F)c6)c(Cl)c5)c4s3)o2)CC1 | -0.8811

Please supply the value of reported ML-2 %inh for the item "Cn1c(-c2ccncc2)c(-c2ccc(F)cc2)c2ncccc21"
-0.3566

Please supply the value of reported ML-2 %inh for the item "CSc1c(C2=C(c3cn(C)c4ccccc34)C(=O)NC2=O)c2ccccc2n1C"
21.47

Please supply the value of reported ML-2 %inh for the item "CC(=O)[C@@H]1[C@@H](C)N(Cc2ccccc2)C(=O)N[C@H]1c1cccc(C(F)(F)F)c1"
0.485

Please supply the value of reported ML-2 %inh for the item "O=c1c(Oc2ccc(F)cc2F)cc2cnc(NC3CCOCC3)nc2n1CCCO"
1.08

Please supply the value of reported ML-2 %inh for the item O=Cc1c2[nH]c3ccccc3c2cc2[nH]c3ccccc3c12 [SJ000561043-1, 6-FORMYLINDOLO [3,2-B] CARBAZOLE]
1.695

Please supply the value of reported ML-2 %inh for the item "Cc1ccc(Nc2ccnc(Nc3cccc(C(N)=O)c3)n2)cc1O"
3.588

Please supply the value of reported ML-2 %inh for the item "C#C[C@]1(O)CC[C@H]2[C@@H]3CCC4=Cc5oncc5C[C@]4(C)[C@H]3CC[C@@]21C"
0.4162

Please supply the value of reported ML-2 %inh for the item "O=C1NC(=Nc2ccccc2)S/C1=C\c1ccc2ncccc2c1"
0.4587

Please supply the value of reported ML-2 %inh for the item "O=C(O)c1cc2cc(O)c(O)cc2c(C(=O)c2ccc(O)c(O)c2)n1"
4.963

* * *

MEASUREMENT_DESCRIPTION: Pharmacokinetics of ruxolitinib, single oral dose, plasma LC-MS/MS
Format: in vivo, mice
RUN_PARAMETERS: mouse, BoyJ, Female, 60 mg kg−1 oral gavage
OBSERVATION_TYPE: Tmax

Please supply the value of reported Tmax for the item "N#CC[C@H](C1CCCC1)n1cc(-c2ncnc3[nH]ccc23)cn1"
15 min

* * *

System: CHRF288-11
MEASUREMENT_DESCRIPTION: Secondary dose-response HTS, Cell Titer Glo
Type: cell-based, human
RUN_PARAMETERS: Homo sapiens, HTS, read-out: average effective concentration, CHRF288-11
OBSERVATION_TYPE: EC50 (nM)
Provide the reading as a plain figure in nM.

Please supply the value of reported EC50 for the item "C=C1C(=O)O[C@@H]2C[C@@H](C)[C@@H]3C=CC(=O)[C@@]3(C)[C@@H](O)[C@H]12"
170

* * *

In this section, each of the compounds is paired with its reported ML-2 %inh.
Tested on: ML-2
Set-up: species or system AML cell lines (8); Primary HTS, single concentration about 10 uM, Cell Titer Glo viability; log10 luminescence, per cent inhibition relative to cycloheximide control
RUN_PARAMETERS: 72 h, relative to cycloheximide control, log10 luminescence; inhibitor
Provide the reading as a plain figure in %.

• CC(C)=CCC/C(C)=C/CC/C(C)=C/CO = 1.139
• Nc1nc(-c2ccccn2)c(-c2ccc3ncccc3n2)s1 = 2.846
• COc1cc2ncn(-c3cc(O[C@@H](C)c4ccccc4Cl)c(C(N)=O)s3)c2cc1OC = 43.99
• CS(=O)(=O)CCNCc1ccoc1-c1ccc2ncnc(Nc3ccc(OCc4ccccc4)cc3)c2c1 = 0.6017
• COCC1=C(C(=O)O)N2C(=O)[C@@H](NC(=O)/C(=N\OC)c3csc(N)n3)[C@H]2SC1 = -0.4312

Please supply the value of reported ML-2 %inh for the item "Nc1c(C(=O)c2cccc(-c3ccncc3)c2)cnn1-c1ccc(F)cc1F"
15.89

Please supply the value of reported ML-2 %inh for the item "Nc1c(C(=O)c2ccc(C#CCN3CCOCC3)cc2)cnn1-c1ccc(F)cc1"
-0.5007

Please supply the value of reported ML-2 %inh for the item "COc1ccc(O)c(C(=O)c2ccc(C(=O)O[C@@H]3CCCNC[C@H]3NC(=O)c3ccncc3)cc2)c1F"
61.64

Please supply the value of reported ML-2 %inh for the item "O=C1NC(=NCCCc2ccccc2)S/C1=C\c1ccc2ncccc2c1"
2.496

Please supply the value of reported ML-2 %inh for the item "Cc1ccc(C)c(C2=C(c3cn(C)c4ccccc34)C(=O)NC2=O)c1"
0.7091

Please supply the value of reported ML-2 %inh for the item "CN(C)CCOc1ccc(-c2cc(-c3ccc4c(c3)CCC4=NO)c(-c3ccncc3)o2)cc1"
66.89

Please supply the value of reported ML-2 %inh for the item "COc1cc(Nc2nccc(-c3cnn4ncccc34)n2)cc(OC)c1"
59.09

Please supply the value of reported ML-2 %inh for the item "C[C@@H]1C[C@H]2[C@@H]3C[C@H](F)C4=CC(=O)C=C[C@]4(C)[C@@]3(F)[C@@H](O)C[C@]2(C)[C@@]1(O)C(=O)CO"
1.1

Please supply the value of reported ML-2 %inh for the item "Cn1cc(C2=C(c3cn(C)c4cc(C(N)=O)ccc34)C(=O)NC2=O)c2ccccc21"
54.4

Please supply the value of reported ML-2 %inh for the item C[C@]12CCC(=O)C=C1CC[C@@H]1[C@@H]2[C@@H](O)C[C@@]2(C)[C@H]1CC[C@]2(O)C(=O)COP(=O)(O)O [SJ000286156-3, HYDROCORTISONE SODIUM PHOSPHATE]
0.191

Please supply the value of reported ML-2 %inh for the item "CCC(=O)Nc1ccc(C)c(-c2ccc(C(=O)NCC3CC3)cc2)c1"
-0.3215

Please supply the value of reported ML-2 %inh for the item "O=C1Nc2ccc(-c3cccnc3)cc2C1=Cc1cc(Br)c(O)c(Br)c1"
4.287

Please supply the value of reported ML-2 %inh for the item "NC(=O)c1cccc(Nc2nccc(Nc3cccc(F)c3)n2)c1"
3.111

* * *

In this section, each of the compounds is paired with its reported EC50.
System: U937
MEASUREMENT_DESCRIPTION: cells
Design: species or system AML cell lines (8); Secondary HTS, 10-point dose-response in triplicate, Cell Titer Glo viability, four-parameter fit EC50
RUN_PARAMETERS: Homo sapiens, U-937, 72 h, read-out: U937

Example compounds with recorded EC50:
• Cc1cc(Nc2cc(N3CCN(C)CC3)nc(/C=C/c3ccccc3)n2)n[nH]1 [ENMD-2076] = > 10 µM
• O=C1c2c(O)ccc(O)c2C(=O)c2c(NCCNCCO)ccc(NCCNCCO)c21 [SJ000285321, MITOXANTHRONE] = 0.026 µM
• COc1cc2nccc(Oc3ccc(NC(=O)C4(C(=O)Nc5ccc(F)cc5)CC4)cc3)c2cc1OC [CABOZANTINIB] = > 10 µM

Next, consider the following compound.
Please supply the value of reported EC50 for the item Cc1nc(C(=O)NCC(=O)O)c(O)c2ccc(Oc3ccccc3)cc12 [FG-4592]
> 10 µM

* * *

In this section, each of the compounds is paired with its reported CMS %inh.
Tested on: CMS
Parameters: species or system AML cell lines (8); Primary HTS, single concentration about 10 uM, Cell Titer Glo viability; log10 luminescence, per cent inhibition relative to cycloheximide control
RUN_PARAMETERS: 72 h, relative to cycloheximide control, log10 luminescence; inhibitor
Provide the reading as a plain figure in %.

Example compounds with recorded CMS %inh:
• CC(C)(S)[C@@H](N)C(=O)O = 1.349
• C[C@]12CCC(=O)C=C1C=C[C@@H]1[C@@H]2CC[C@@]2(C)[C@H]1CC[C@@]21CCC(=O)O1 = 0.603
• CC1=Nc2ccc(Cl)cc2S(=O)(=O)N1 [SJ000285438-7, DIAZOXIDE] = -4.011

Next, consider the following compound.
Please supply the value of reported CMS %inh for the item "C[C@H](O)CNc1cc(-c2[nH]c3cccnc3c2-c2ccc(F)cc2)ccn1"
-1.462

* * *

System: MOLM-13
MEASUREMENT_DESCRIPTION: Secondary dose-response HTS, Cell Titer Glo
Type: cell-based, human
RUN_PARAMETERS: secondary high-throughput screen; MOLM-13; read-out: average effective concentration, MOLM-13
In this section, each of the substances is paired with its reported pEC50.
FYI, pEC50 means -log10 of a concentration in mol per litre.

* MITHRAMYCIN A | 6.85

Give pEC50; test system MOLM-13; substance "(-)-NUTLIN-3"
6.03

* * *

System: FLT3-ITD+ primary AML blast samples
pIC50: −log10 of the molar value.
OBSERVATION_TYPE: pIC50

Example compounds with recorded pIC50:
• CC(=O)c1c(C)c2cnc(Nc3ccc(N4CCNCC4)cn3)nc2n(C2CCCC2)c1=O [Palbociclib, reference compound] = 5.28 to 6.01
• CCOc1cc(C(C)(C)C)ccc1C1=N[C@@](C)(c2ccc(Cl)cc2)[C@@](C)(c2ccc(Cl)cc2)N1C(=O)N1CCN(CCCS(C)(=O)=O)CC1 [RG7112, reference compound] = 6.02 to 7.11
• C/C=C1\NC(=O)[C@H]2CSSCC/C=C/[C@H](CC(=O)N[C@H](C(C)C)C(=O)N2)OC(=O)[C@H](C(C)C)NC1=O [Romidepsin, reference compound] = 7.89 to 8.42

Next, consider the following compound.
Please supply the value of reported pIC50 for the item "COc1cc(Nc2ncc3c(n2)-c2ccc(Cl)cc2C(c2c(F)cccc2OC)=NC3)ccc1C(=O)O"
5.50 to 8.06
